These entries and their values trace back to patent US12391698B2.

molecular target: cloned human SERT receptor (Homo sapiens); assay: Determination of Ki at SERT receptor (SPA binding, [3H]-Citalopram); settings: HEK293 recombinant cells; [3H]-Citalopram 2 nM; read-out: Ki hSERT
Sequence (P31645 whole entry): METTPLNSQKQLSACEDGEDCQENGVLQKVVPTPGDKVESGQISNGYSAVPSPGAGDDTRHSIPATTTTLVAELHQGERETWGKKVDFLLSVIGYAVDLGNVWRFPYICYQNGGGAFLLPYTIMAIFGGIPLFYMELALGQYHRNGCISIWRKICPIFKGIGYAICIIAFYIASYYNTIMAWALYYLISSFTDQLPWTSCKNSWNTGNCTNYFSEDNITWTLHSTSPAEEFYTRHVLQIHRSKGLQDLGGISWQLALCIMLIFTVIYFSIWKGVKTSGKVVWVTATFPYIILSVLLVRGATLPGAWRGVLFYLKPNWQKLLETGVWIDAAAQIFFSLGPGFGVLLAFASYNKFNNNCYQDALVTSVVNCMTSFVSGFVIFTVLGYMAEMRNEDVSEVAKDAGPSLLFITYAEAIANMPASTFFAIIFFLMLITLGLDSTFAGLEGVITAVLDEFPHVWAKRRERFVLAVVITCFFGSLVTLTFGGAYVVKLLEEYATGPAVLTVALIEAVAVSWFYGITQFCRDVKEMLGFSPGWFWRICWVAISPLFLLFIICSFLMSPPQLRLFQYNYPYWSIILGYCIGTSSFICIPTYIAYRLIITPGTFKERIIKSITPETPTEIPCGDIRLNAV
Counter-ions that a name gives are not always drawn.
measured metric: Ki (nM)
Answers are plain numbers, in nM.

O=C1C[C@@H]2CCCCN2C(=O)N1CCCCN1CCC(c2c[nH]c3ccc(F)cc23)CC1 : 26.9
O=C1C[C@@H]2CCCN2C(=O)N1CCCCN1CCN(c2nsc3ccccc23)CC1 [Example 2, oxalate] : 1060
O=C1C[C@@H]2CCCN2C(=O)N1CCCCN1CCC(c2c[nH]c3ccc(F)cc23)CC1 [Example 7, oxalate] : 38.5

Go through the items and report each one's Ki.
1. COC(=O)N1CCN2C(=O)N(CCCCN3CCC(c4noc5cc(F)ccc45)CC3)C(=O)C[C@@H]2C1 [Example 35]
2. COC(=O)N1CCN2C(=O)N(CCCCN3CCC(c4noc5cc(F)ccc45)CC3)C(=O)C[C@@H]2C1 [Example 36, fumarate]
3. O=C1C[C@H]2COCCN2C(=O)N1C[C@H]1CCCC[C@H]1CN1CCN(c2nsc3ccccc23)CC1

[975, 1480, 9350]

Return reported Ki; argument: CC(=O)N1CCN2C(=O)N(CCCCN3CCN(c4nsc5ccccc45)CC3)C(=O)C[C@@H]2C1 [Example 38, fumarate]
953

---

Test: Rodent pharmacokinetic study
Type: in vivo, Male Wistar rats
Settings: rat, plasma; intravenous (bolus) 1 mg/kg; male Wistar rats; mean ± S.D, n = 3
Method: Male Wistar rats (260±50 g) were used as experimental animals. Animals were housed individually in polypropylene cage. Two days prior to study, male Wistar rats were anesthetized with isoflurane for surgical placement of jugular vein catheter. […] At pre-determined time points, blood samples were collected through jugular vein and replenished with an equivalent volume of normal saline. […] The test compounds were quantified in the calibration range around 1-1000 ng/mL in plasma. […]
Where a name gives a salt, the structure may show the parent alone.
Please provide measured clearance for the entries that follow.
Answer format: number, then unit.

Record excerpt, results attached:
O=C1C[C@H]2CCCN2C(=O)N1C[C@H]1CCCC[C@H]1CN1CCC(c2noc3cc(F)ccc23)CC1 [Example 29, oxalate] : 57 mL/min/kg
O=C1C[C@@H]2C[C@H](F)CN2C(=O)N1CCCCN1CCN(c2nsc3ccccc23)CC1 [Example 9, oxalate] : 40 mL/min/kg

Now consider a different molecule.
Entry O=C1C[C@@H]2CCCN2C(=O)N1CCCCN1CCN(c2cccc3sccc23)CC1 [Example 4, oxalate] : reported clearance = ?
48 mL/min/kg

---

target: cloned human 5-HT2A receptor (Homo sapiens); construct: expressed in transfected cells; host or cells: CHO-K1; assay: Determination of Ki at 5-HT2A receptor (radioligand binding, [3H]-Ketanserine); conditions: Ki h5-HT2A, CHO-K1 recombinant cells; [3H]-Ketanserine 1.25 nM
Structures can show the parent of a compound that is named as a salt.
measured metric: pKi
Give bare numbers, as −log10 of the molar value.

Record lookup: for cloned human 5-HT2A receptor (Homo sapiens), what pKi belongs to O=C1C[C@@H]2C[C@H]3C[C@H]3N2C(=O)N1CCCCN1CCN(c2nsc3ccccc23)CC1 [Example 11, oxalate] ?
8.99

---

Experiment: Rodent pharmacokinetic study
Type: in vivo, Male Wistar rats
Settings: rat, plasma; oral (gavage) 3 mg/kg; fasted male Wistar rats; mean ± S.D, n = 3
Protocol: Male Wistar rats (260±50 g) were used as experimental animals. Animals were housed individually in polypropylene cage. Two days prior to study, male Wistar rats were anesthetized with isoflurane for surgical placement of jugular vein catheter. […] At pre-determined time points, blood samples were collected through jugular vein and replenished with an equivalent volume of normal saline. […] The test compounds were quantified in the calibration range around 1-1000 ng/mL in plasma. […]
Counter-ions that a name gives are not always drawn.
measured metric: AUC(0-t) (ng·h/mL)
Answers are plain numbers, in ng·h/mL.

O=C1C[C@@H]2C[C@H](F)CN2C(=O)N1CCCCN1CCN(c2nsc3ccccc23)CC1 [Example 9, oxalate] : 178
O=C1C[C@@H]2CCCN2C(=O)N1CCCCN1CCC(c2noc3cc(F)ccc23)CC1 : 151

Attention now turns to another entry.
Entry under review: O=C1C[C@H]2CCCN2C(=O)N1C[C@H]1CCCC[C@H]1CN1CCC(c2noc3cc(F)ccc23)CC1 [Example 29, oxalate] . Reported AUC(0-t)?
40

---

Biological target: cloned human 5-HT1A receptor (Homo sapiens)
Construct: expressed in transfected cells; host or cells: HEK293-EBNA
Sequence (P08908 1-422): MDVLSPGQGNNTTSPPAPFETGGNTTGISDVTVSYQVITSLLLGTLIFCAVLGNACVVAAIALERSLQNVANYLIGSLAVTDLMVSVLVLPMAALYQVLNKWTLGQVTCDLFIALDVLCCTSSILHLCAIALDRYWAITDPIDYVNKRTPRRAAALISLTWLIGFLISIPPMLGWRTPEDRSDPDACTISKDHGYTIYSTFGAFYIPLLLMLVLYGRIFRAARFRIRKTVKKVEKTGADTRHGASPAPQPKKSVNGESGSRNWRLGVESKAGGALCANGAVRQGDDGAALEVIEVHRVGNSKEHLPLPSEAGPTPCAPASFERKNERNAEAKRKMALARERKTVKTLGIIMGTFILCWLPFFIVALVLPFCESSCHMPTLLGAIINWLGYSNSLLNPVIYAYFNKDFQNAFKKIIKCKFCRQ
Assay: Determination of Ki at 5-HT1A receptor (radioligand binding, [3H]-8-Hydroxy DPAT)
Settings: Ki h5-HT1A, HEK293-EBNA recombinant cells; [3H]-8-Hydroxy DPAT 0.8 nM
Structures can show the parent of a compound that is named as a salt.
measured metric: Ki
Provide a numeric answer, followed by its unit.

Param item = O=C1C[C@@H]2C[C@H]3C[C@H]3N2C(=O)N1CCCCN1CCN(c2nsc3ccccc23)CC1 [Example 11, oxalate] ; retrieve measured Ki.
0.29 nM

---

biological target: recombinant rat 5-HT7 receptor (Rattus norvegicus); construct: expressed in transfected cells; test: Determination of Kb at 5-HT7 receptor, pCRE-Luc reporter gene assay in CHO cells; type: cell-based; settings: pCRE-Luc reporter gene assay
Sequence (P32305 whole entry): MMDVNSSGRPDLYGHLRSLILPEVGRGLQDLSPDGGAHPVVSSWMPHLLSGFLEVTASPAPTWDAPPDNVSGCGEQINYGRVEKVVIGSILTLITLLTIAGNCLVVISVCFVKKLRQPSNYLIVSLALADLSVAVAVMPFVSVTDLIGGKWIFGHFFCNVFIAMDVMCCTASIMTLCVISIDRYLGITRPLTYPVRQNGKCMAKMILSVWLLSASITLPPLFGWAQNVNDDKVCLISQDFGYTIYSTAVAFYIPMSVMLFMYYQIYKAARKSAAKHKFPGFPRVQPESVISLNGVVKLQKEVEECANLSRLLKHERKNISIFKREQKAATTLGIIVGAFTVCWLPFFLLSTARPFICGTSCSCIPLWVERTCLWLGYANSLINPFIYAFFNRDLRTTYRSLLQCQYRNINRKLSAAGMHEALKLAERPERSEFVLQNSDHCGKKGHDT
Counter-ions that a name gives are not always drawn.
measured metric: antagonistic activity at rat recombinant 5-HT7 receptor

O=C1C[C@@H]2CCCN2C(=O)N1CCCCN1CCN(c2nsc3ccccc23)CC1 [Example 2, oxalate] : antagonistic activity
O=C1C[C@@H]2COCCN2C(=O)N1CCCCN1CCN(c2nsc3ccccc23)CC1 [Example 18, oxalate] : antagonistic activity
O=C1C[C@@H]2C[C@H]3C[C@H]3N2C(=O)N1CCCCN1CCN(c2nsc3ccccc23)CC1 [Example 11, oxalate] : antagonistic activity
O=C1C[C@@H]2C[C@H](F)CN2C(=O)N1CCCCN1CCN(c2nsc3ccccc23)CC1 [Example 9, oxalate] : antagonistic activity

---

experiment: Rodent pharmacokinetic study; type: in vivo, Male Wistar rats; settings: rat, plasma; oral (gavage) 3 mg/kg; fasted male Wistar rats; mean ± S.D, n = 3
Structures can show the parent of a compound that is named as a salt.
// Not fulfilled strictly below 90 ng/mL in Cmax; Fulfilled otherwise

Some solved entries appear below for comparison.
O=C1C[C@@H]2CCCN2C(=O)N1CCCCN1CCN(c2nsc3ccccc23)CC1 [Example 2, oxalate] : Fulfilled
O=C1C[C@@H]2CCCN2C(=O)N1CCCCN1CCC(c2noc3cc(F)ccc23)CC1 : Fulfilled

We next turn to a different compound, shown below.
Textbook exercise: given the entry O=C1C[C@@H]2C[C@H]3C[C@H]3N2C(=O)N1CCCCN1CCN(c2nsc3ccccc23)CC1 [Example 11, oxalate] , state whether its Cmax is greater than or equal to 90 ng/mL.
Fulfilled

---

biological target: hD2S (cloned human dopamine D2S receptor) (Homo sapiens, UniProt P14416); construct: expressed in transfected cells; host or cells: CHO-K1; assay: Determination of Ki at D2S receptor (radioligand binding, [3H]-Raclopride); settings: CHO-K1 recombinant cells; [3H]-Raclopride 4 nM; read-out: Ki hD2S
Sequence (P14416 1-414 isoform P14416-2): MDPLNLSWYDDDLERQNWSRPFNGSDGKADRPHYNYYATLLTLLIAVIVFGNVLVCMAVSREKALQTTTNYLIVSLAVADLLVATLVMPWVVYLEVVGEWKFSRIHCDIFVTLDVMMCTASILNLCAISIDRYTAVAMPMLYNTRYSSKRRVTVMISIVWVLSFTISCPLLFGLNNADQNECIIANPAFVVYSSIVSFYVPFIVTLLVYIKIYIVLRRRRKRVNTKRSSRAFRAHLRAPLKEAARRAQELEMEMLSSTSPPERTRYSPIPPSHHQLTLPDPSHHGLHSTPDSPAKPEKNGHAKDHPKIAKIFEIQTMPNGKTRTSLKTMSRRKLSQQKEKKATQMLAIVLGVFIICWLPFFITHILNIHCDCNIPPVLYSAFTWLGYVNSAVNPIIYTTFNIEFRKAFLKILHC
Structures can show the parent of a compound that is named as a salt.
Would you kindly list pKi for each of these compounds?
Give bare numbers, as −log10 of the molar value.

These solved cases illustrate the format of a correct answer.
O=C1C[C@@H]2CCCN2C(=O)N1CCCCN1CCC(c2c[nH]c3ccc(F)cc23)CC1 [Example 7, oxalate] : 8.35
CC(=O)N1CCN2C(=O)N(CCCCN3CCN(c4nsc5ccccc45)CC3)C(=O)C[C@@H]2C1 [Example 38, fumarate] : 8.35
O=C1C[C@@H]2C[C@H](F)CN2C(=O)N1CCCCN1CCN(c2nsc3ccccc23)CC1 [Example 9, oxalate] : 8.56
COC(=O)N1CCN2C(=O)N(CCCCN3CCC(c4noc5cc(F)ccc45)CC3)C(=O)C[C@@H]2C1 [Example 35] : 8.33

Find the measured pKi: item O=C1C[C@H]2COCCN2C(=O)N1C[C@H]1CCCC[C@H]1CN1CCN(c2nsc3ccccc23)CC1 , target or system hD2S (cloned human dopamine D2S receptor) (Homo sapiens, UniProt P14416).
9.22
